- Tested on: Pseudomonas aeruginosa B
- protocol_details: MIC, plate test (Table 1)
- Format: cell-based
- measurement_context: 37°C, 24 hours, read-out: Minimum inhibitory concentration (MIC)
Measured MIC of individual entries
readout_label: MIC (µg/mL)

>>> quantitative_result("CC(=O)Nc1n[n+]([O-])c2ccccc2[n+]1[O-] [Example 2]")
4
>>> quantitative_result("CNc1n[n+]([O-])c2ccccc2[n+]1[O-] [Example 1]")
8
>>> quantitative_result("CCCCCCCCCCCCCCCCCC(=O)Nc1n[n+]([O-])c2ccccc2[n+]1[O-] [Example 6]")
128
>>> quantitative_result("CC(=O)CC(=O)Nc1n[n+]([O-])c2ccccc2[n+]1[O-] [Example 4]")
128
>>> quantitative_result("CNC(=O)Nc1n[n+]([O-])c2ccccc2[n+]1[O-] [Example 7]")
128
>>> quantitative_result("CCC(=O)Nc1n[n+]([O-])c2ccccc2[n+]1[O-] [Example 3]")
128

###

Measured MIC of individual entries
- System: Streptococcus pyogenes
- protocol_details: MIC, plate test (Table 1)
- Type: cell-based
- measurement_context: with serum, 37°C, 24 hours, read-out: Minimum inhibitory concentration (MIC)
readout_label: MIC (mg/L)

>>> quantitative_result("CNc1n[n+]([O-])c2ccccc2[n+]1[O-]")
128
>>> quantitative_result("CCCCCCCCCCCCCCCCCC(=O)Nc1n[n+]([O-])c2ccccc2[n+]1[O-]")
128
>>> quantitative_result("CC(=O)Nc1n[n+]([O-])c2ccccc2[n+]1[O-]")
1
>>> quantitative_result("CCC(=O)Nc1n[n+]([O-])c2ccccc2[n+]1[O-]")
128
>>> quantitative_result("CNC(=O)Nc1n[n+]([O-])c2ccccc2[n+]1[O-]")
1
>>> quantitative_result("CC(=O)CC(=O)Nc1n[n+]([O-])c2ccccc2[n+]1[O-]")
8

###

- System: Pseudomonas aeruginosa w
- protocol_details: MIC, plate test (Table 1)
- Format: cell-based
- measurement_context: 37°C, 24 hours, read-out: Minimum inhibitory concentration (MIC)
readout_label: MIC (µg/mL)

>>> quantitative_result("CC(=O)Nc1n[n+]([O-])c2ccccc2[n+]1[O-] [Example 2]")
8
>>> quantitative_result("CCC(=O)Nc1n[n+]([O-])c2ccccc2[n+]1[O-] [Example 3]")
128
>>> quantitative_result("CC(=O)CC(=O)Nc1n[n+]([O-])c2ccccc2[n+]1[O-] [Example 4]")
128
>>> quantitative_result("CNC(=O)Nc1n[n+]([O-])c2ccccc2[n+]1[O-] [Example 7]")
128
>>> quantitative_result("CCCCCCCCCCCCCCCCCC(=O)Nc1n[n+]([O-])c2ccccc2[n+]1[O-] [Example 6]")
128
>>> quantitative_result("CNc1n[n+]([O-])c2ccccc2[n+]1[O-] [Example 1]")
128

###

Here's what we have: MIC numbers for Staphylococcus aureus 133.
readout_label: MIC (µg/mL)

>>> quantitative_result("CNC(=O)Nc1n[n+]([O-])c2ccccc2[n+]1[O-] [Example 7]")
1
>>> quantitative_result("CCCCCCCCCCCCCCCCCC(=O)Nc1n[n+]([O-])c2ccccc2[n+]1[O-] [Example 6]")
128
>>> quantitative_result("CC(=O)CC(=O)Nc1n[n+]([O-])c2ccccc2[n+]1[O-] [Example 4]")
8
>>> quantitative_result("CNc1n[n+]([O-])c2ccccc2[n+]1[O-] [Example 1]")
8
>>> quantitative_result("CCC(=O)Nc1n[n+]([O-])c2ccccc2[n+]1[O-] [Example 3]")
1

Just for reference, patent US3957779A is where these values come from.
